- SYSTEM TESTED: RSV F protein of recombinant mKate-RSV, subtype A (strain A2) (Respiratory syncytial virus subtype A …, UniProt P03420 26-574)
- PROTOCOL SUMMARY: cell-based or functional assay
TEST READOUT: Neut IC50 subtype A

Prompt: Need Neut IC50 subtype A of ADI-14500 (antibody, V domains shown, full-length IgG (yeast-expressed); also called Antibody Number 61; Ab# 61) VH: EVQLLESGGGLVKPGGSLRLSCAASGFIFNNAWMTWVRQAPGRGLEWVGRIKTNADGGTADYSTPVKGRFAISRDDSTNTLYLQMNSLKTEDTAVYYCTTGPPYKYSDSTGYSVVDYWGQGTLVTVSS VL: SYELTQPPSASGTPGQRVTISCSGSSSNIGSNYVYWYQQLPGTAPKLLIYSTNQRPSGVPDRFSGSQSGTSASLAISGLRSEDEADYYCAAWDDRLSGPVFGGGTQLTVL , thanks.
Response: 0.415 µg/mL

Prompt: Same again, this time with ADI-14444 (antibody, V domains shown) VH: QVQLVQSGPDVKRPGASVRVSCKASGYTFSDYYMHWVRQAPGQGLEWLAWVNPSTGATHYSESFRGSMVVQRDTSTDTAYLELSSLKSDDTAVYYCARIGSNEIWGQGTMVTVSS VL: QSALTQPASVSGSPGQSITISCAGTSSDIGGWNYVSWYQQYPGQVPKLILYEVTDRPSGVSHRFSGSKSGNRAFLTITGLRAEDEADYYCCSFTSSGSRVFGGGTKVTVL
Response: > 10 µg/mL

Prompt: Same again, this time with ADI-14487 (antibody, V domains shown) VH: QVQLVQSGAEVKKPGASVRVSCKASGYTFSSYYIHWVRQAPGQGPEWLGWINPKSGDTIYSYKFQGRVTLTRETSITTAYMELTSLRSDDTAVYYCARVTWQWLVLGGFDYWGQGTLVTVSS VL: DIVLTQSPLSLPVTPGEPASISCRSSLSLLHSNGDNYLDWYLQKPGQSPQLLIYLGSNRASGVPDRFSGSGSGTDFTLKISRVEAEDVGVYYCMQALHTPLTFGGGTKLEIK
Response: > 10 µg/mL

Prompt: Same again, this time with ADI-14480 (antibody, V domains shown) VH: QVQLVQSGAEVKKPGSSMSISCRASGGSFNNQAIHWIRQAPGEGLEWMGNIIPNFGSQNYAPEFVGRVSFNADASAGTAYMDLSDLTSQDTAVYYCATAGWFGELVRFDSWGQGTLVTVSS VL: DIVMTQSPATLSVSPGGRATLSCRASETITTNLAWYQQKPGQAPRLLIYGASTRATGIPARFSGSGSGTEFTLTINSLQSEDFAVYYCQQYNNWPPLTFGGGTKLEIK
Response: > 10 µg/mL

Prompt: Same again, this time with ADI-14445 (antibody, V domains shown, full-length IgG (yeast-expressed); also called Antibody Number 8; Ab# 8) VH: EVQLLESGAVMKRPGSSVRVSCRASGVTLTTVSVNWVRQVPGQGPEWIGGILIGFGKVRQAQKFENRVTLTADASRNTAYMELSGLTSDDTAVYYCAIIDPQDCTRASCFWVNWLDPWGQGTLVTVSS VL: DIRMTQSPGTLTLSPGERATLSCRASQSILSGNLAWYQQKPGQAPRLLISAASTRATDIPDRFSGSGSGTDFTLTITRLEPQDFAVYYCQQYDSAPITFGQGTRLEIK
Response: > 10 µg/mL

Values were extracted from patent US20250313612A1.
